assay: Inhibition of maltase in rat small intestinal mucosa assessed as reduction in glucose production using maltose as substrate measured after 40 mins by glucose oxidase assay
Decide using IC50 alone. Strictly below 20 µM: y. Equal to or above 20 µM: n.

COMPOUND	LABEL VALUE
C/C1=C/CC/C(=C/Cc2cc(O)ccc2O)C(=O)OC(C)(C)[C@H](O)CC1	n
COC1(c2cc(O)ccc2O)C=C(CC/C=C(\C)CC/C=C(\C)C=O)C(=O)O1 (stereo not drawn)	n
CC(C)=CCC/C(C)=C/CCC1=C[C@H](c2cc(O)ccc2O)OC1=O	y
CC(C)=CCC/C(C)=C/CCC(CC(=O)c1cc(O)ccc1O)C(=O)O (stereo not drawn)	n
CC(C)=CCC/C(C)=C/CC/C(=C\Cc1cc(O)ccc1O)C(=O)O	n
C/C(C=O)=C\CC/C(C)=C/CCC1=C[C@H](c2cc(O)ccc2O)OC1=O	n
CC(C)=CCC/C(C)=C/CC/C(=C/C(=O)c1cc(O)ccc1O)C(=O)O	y
CC(C)=CCC/C(C)=C/CC/C(=C/Cc1cc(O)ccc1O)C(=O)O	y

====

assay: Inhibition of baker's yeast alpha-glucosidase using p-nitrophenyl alpha-D-glucopyranoside as substrate preincubated for 10 mins followed by substrate addition measured for 15 mins; parameters: species or system Saccharomyces cerevisiae
Measured IC50 accompanies every entry in the list below.

COMPOUND	BOUND SIGN	IC50 [µM]
COC1(c2cc(O)ccc2O)C=C(CC/C=C(\C)CC/C=C(\C)C=O)C(=O)O1 (centres undefined)	=	10.2
CC(C)=CCC/C(C)=C/CC/C(=C\Cc1cc(O)ccc1O)C(=O)O	>	100
C/C1=C/CC/C(=C/Cc2cc(O)ccc2O)C(=O)OC(C)(C)[C@H](O)CC1	=	6.3
CC(C)=CCC/C(C)=C/CC/C(=C/C(=O)c1cc(O)ccc1O)C(=O)O	=	3.2
C/C(C=O)=C\CC/C(C)=C/CCC1=C[C@H](c2cc(O)ccc2O)OC1=O	=	12.7
CC(C)=CCC/C(C)=C/CC/C(=C/Cc1cc(O)ccc1O)C(=O)O [GANOMYCIN B]	=	1.6
C[C@H]1O[C@H](O[C@H]2[C@H](O)[C@@H](O)[C@@H](O[C@H]3[C@H](O)[C@@H](O)C(O)O[C@@H]3CO)O[C@@H]2CO)[C@H](O)[C@@H](O)[C@@H]1N[C@H]1C=C(CO)[C@@H](O)[C@H](O)[C@H]1O (some centres undefined) [ACARBOSE]	=	273
CC(C)=CCC/C(C)=C/CCC(CC(=O)c1cc(O)ccc1O)C(=O)O (centres undefined) [FORNICIN C]	=	32.1
CC(C)=CCC/C(C)=C/CCC1=C[C@H](c2cc(O)ccc2O)OC1=O	=	0.3

====

biological target: 3-hydroxy-3-methylglutaryl-coenzyme A reductase (Sus scrofa)
Sequence (Q1W675 whole entry): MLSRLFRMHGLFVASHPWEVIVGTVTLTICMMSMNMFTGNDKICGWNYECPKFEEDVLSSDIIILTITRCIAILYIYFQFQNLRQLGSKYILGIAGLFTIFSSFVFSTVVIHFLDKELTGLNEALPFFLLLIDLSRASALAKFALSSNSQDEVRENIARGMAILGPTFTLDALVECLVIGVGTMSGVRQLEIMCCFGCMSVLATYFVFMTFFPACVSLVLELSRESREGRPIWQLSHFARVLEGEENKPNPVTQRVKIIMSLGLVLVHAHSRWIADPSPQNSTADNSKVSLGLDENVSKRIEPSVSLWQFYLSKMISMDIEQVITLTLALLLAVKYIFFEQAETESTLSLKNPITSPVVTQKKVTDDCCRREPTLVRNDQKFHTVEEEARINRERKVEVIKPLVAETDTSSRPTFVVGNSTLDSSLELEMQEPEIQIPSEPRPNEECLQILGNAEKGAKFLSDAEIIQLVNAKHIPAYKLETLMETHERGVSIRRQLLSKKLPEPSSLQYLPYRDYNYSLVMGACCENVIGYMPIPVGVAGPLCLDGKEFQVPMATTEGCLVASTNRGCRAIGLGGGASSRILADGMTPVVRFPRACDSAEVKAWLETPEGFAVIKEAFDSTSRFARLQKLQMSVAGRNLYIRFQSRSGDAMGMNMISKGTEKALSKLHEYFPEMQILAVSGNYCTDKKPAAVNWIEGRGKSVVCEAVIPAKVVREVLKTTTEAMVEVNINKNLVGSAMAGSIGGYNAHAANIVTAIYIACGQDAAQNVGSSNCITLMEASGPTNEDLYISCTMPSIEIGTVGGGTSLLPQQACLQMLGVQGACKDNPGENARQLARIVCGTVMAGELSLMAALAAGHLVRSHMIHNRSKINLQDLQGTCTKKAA
Measured IC50 accompanies every entry in the list below.

COMPOUND	BOUND SIGN	IC50 [µM]
C/C1=C/CC/C(=C/Cc2cc(O)ccc2O)C(=O)OC(C)(C)[C@H](O)CC1	>	100
C/C(C=O)=C\CC/C(C)=C/CCC1=C[C@H](c2cc(O)ccc2O)OC1=O	>	100
CC(C)=CCC/C(C)=C/CCC1=C[C@H](c2cc(O)ccc2O)OC1=O	=	12.3
CC(C)=CCC/C(C)=C/CC/C(=C\Cc1cc(O)ccc1O)C(=O)O	>	100
CC(C)=CCC/C(C)=C/CC/C(=C/C(=O)c1cc(O)ccc1O)C(=O)O	=	45.2
COC1(c2cc(O)ccc2O)C=C(CC/C=C(\C)CC/C=C(\C)C=O)C(=O)O1 (stereo unspecified)	=	56.9

====

test system: Saccharomyces cerevisiae; assay: Non-competitive inhibition of baker's yeast alpha-glucosidase using varying levels of p-nitrophenyl alpha-D-glucopyranoside as substrate preincubated for 10 mins followed by substrate addition measured for 15 mins by Lineweaver-Burk plot analysis
Calls of active or inactive are those of the source. No cut-off for these calls is given here.
PARAMETER: inhibition

COMPOUND	TARGET ENTITY	RECORDED RESULT
CC(C)=CCC/C(C)=C/CC/C(=C/Cc1cc(O)ccc1O)C(=O)O	Saccharomyces cerevisiae	Active
CC(C)=CCC/C(C)=C/CC/C(=C/C(=O)c1cc(O)ccc1O)C(=O)O	Saccharomyces cerevisiae	Active
C/C(C=O)=C\CC/C(C)=C/CCC1=C[C@H](c2cc(O)ccc2O)OC1=O	Saccharomyces cerevisiae	Active
CC(C)=CCC/C(C)=C/CCC(CC(=O)c1cc(O)ccc1O)C(=O)O (configuration not stated)	Saccharomyces cerevisiae	Active
COC1(c2cc(O)ccc2O)C=C(CC/C=C(\C)CC/C=C(\C)C=O)C(=O)O1 (configuration not stated)	Saccharomyces cerevisiae	Active
CC(C)=CCC/C(C)=C/CCC1=C[C@H](c2cc(O)ccc2O)OC1=O	Saccharomyces cerevisiae	Active
C/C1=C/CC/C(=C/Cc2cc(O)ccc2O)C(=O)OC(C)(C)[C@H](O)CC1	Saccharomyces cerevisiae	Active

====

experiment: Inhibition of alpha-glucosidase in rat small intestinal mucosa assessed as reduction in glucose production using p-nitrophenyl alpha-D-glucopyranoside as substrate measured after 40 mins by glucose oxidase assay
Measured IC50 accompanies every entry in the list below.

MOLECULE	RESULT UNITS	BOUND SIGN	IC50
C/C(C=O)=C\CC/C(C)=C/CCC1=C[C@H](c2cc(O)ccc2O)OC1=O	µM	=	15.8
CC(C)=CCC/C(C)=C/CC/C(=C/Cc1cc(O)ccc1O)C(=O)O	µM	=	5.9
C/C1=C/CC/C(=C/Cc2cc(O)ccc2O)C(=O)OC(C)(C)[C@H](O)CC1	µM	=	3.6
CC(C)=CCC/C(C)=C/CC/C(=C\Cc1cc(O)ccc1O)C(=O)O	µM	>	100
CC(C)=CCC/C(C)=C/CC/C(=C/C(=O)c1cc(O)ccc1O)C(=O)O	µM	=	6.4
COC1(c2cc(O)ccc2O)C=C(CC/C=C(\C)CC/C=C(\C)C=O)C(=O)O1 (configuration not stated)	µM	=	15.8
CC(C)=CCC/C(C)=C/CCC(CC(=O)c1cc(O)ccc1O)C(=O)O (configuration not stated)	µM	=	61.2
